// reported counts minus background (counts per 20 min) for each item listed
Target: HIV-1LAI envelope gp120 labeled with radioactive iodine (HIV-1 LAI), P03377
Experiment: 125I-gp120, peptide array
Form: value (number only, do not type unit).

Example results:
>>> print(df.to_string())
                                     binder  value_observed
0  LLNLAISDLFFLLTVPFW (modifications not checked) [CCR5 69-86]             144
1  VSSPIYDINYYTSEPCQK (modifications not checked) [CCR5 5-22]             383
2  MLVILILINCKRLKSMTD (modifications not checked) [CCR5 49-66]              84
3  FVGNMLVILILINCKRLK (modifications not checked) [CCR5 45-62]              62
4  LRSMTDKYRLHLSVADLL (modifications not checked) [CXCR4 69-86]             160

So for LKARTVTFGVVTSVITWV (modifications not checked) [CCR5 137-154] , the logged counts minus background (counts per 20 min) turned out to be 74

So for KLLAEKVVYVGVWIPALL (modifications not checked) [CXCR4 149-166] , the logged counts minus background (counts per 20 min) turned out to be 89

So for VVFQFQHIMVGLILPGIV (modifications not checked) [CXCR4 197-214] , the logged counts minus background (counts per 20 min) turned out to be 589

So for FLFWAPYNIVLLLNTFQE (modifications not checked) [CCR5 245-262] , the logged counts minus background (counts per 20 min) turned out to be 616

So for YSIIFLTGIVGNGLVILV (modifications not checked) [CXCR4 45-62] , the logged counts minus background (counts per 20 min) turned out to be 123

So for FQHIMVGLILPGIVILSC (modifications not checked) [CXCR4 201-218] , the logged counts minus background (counts per 20 min) turned out to be 170

So for ILLEIIKQGCEFENTVHK (modifications not checked) [CXCR4 265-282] , the logged counts minus background (counts per 20 min) turned out to be 117

So for KIVILGLVLPLLVMVICY (modifications not checked) [CCR5 197-214] , the logged counts minus background (counts per 20 min) turned out to be 65

So for ILAFFACWLPYYIGISID (modifications not checked) [CXCR4 245-262] , the logged counts minus background (counts per 20 min) turned out to be 184

So for LFFLLTVPFWAHYAAAQW (modifications not checked) [CCR5 77-94] , the logged counts minus background (counts per 20 min) turned out to be 173
